Cited source for all entries: PubChem BioAssay AID1963427

# Test system: 317291-083-R-J1-PDC complex spheroid growth
# Method Description: Anticancer human tumor 317291-083-R-J1-PDC patient-derived soft tissue sarcoma cell line growth inhibition [Asc]
# Test Parameters: curve of first compound; second compound 3 µM
Assay Readout: IC50 (nM)
Express the result in nM but write the number alone.

Asked: Tell me measured IC50 for NC(=O)C(=Cn1cnc(-c2cc(C(F)(F)F)cc(C(F)(F)F)c2)n1)c1cncnc1 + CCN1C(C(=O)NC23CCC(C(=O)O)(CC2)CC3)C(c2cccc(Cl)c2F)C2(C(=O)Nc3cc(Cl)ccc32)C12CCCCC2 please.
Given back: 18.2

Continuing:
Asked: Tell me measured IC50 for C=CC(=O)N1CCN(c2nc(=O)n(-c3c(C)ccnc3C(C)C)c3nc(-c4c(O)cccc4F)c(F)cc23)C(C)C1 (centres undefined) + CCN1C(C(=O)NC23CCC(C(=O)O)(CC2)CC3)C(c2cccc(Cl)c2F)C2(C(=O)Nc3cc(Cl)ccc32)C12CCCCC2 please.
Given back: 8770

Asked: Tell me measured IC50 for COc1c(OCCCN2CCOCC2)ccc2c3n(c(=NC(=O)c4cnc(N)nc4)nc12)CCN3 + CCN1C(C(=O)NC23CCC(C(=O)O)(CC2)CC3)C(c2cccc(Cl)c2F)C2(C(=O)Nc3cc(Cl)ccc32)C12CCCCC2 please.
Given back: 127

Asked: Tell me measured IC50 for C=C(F)C(=O)N1CCN(c2nc(OCC3CCCN3C)nc3c2CCN(c2cccc4cccc(Cl)c24)C3)CC1CC#N (centres undefined) + CCN1C(C(=O)NC23CCC(C(=O)O)(CC2)CC3)C(c2cccc(Cl)c2F)C2(C(=O)Nc3cc(Cl)ccc32)C12CCCCC2 please.
Given back: 2110

---

# Test system: 317291-083-R-J1-PDC complex spheroid growth
# Method Description: Anticancer human tumor 317291-083-R-J1-PDC cell line growth inhibition [Asc];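 also: compound exposure lasted seven days after spheroids formed for three days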;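 as to viability, T/C: 100% = DMSO vehicle control wells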
# Test Parameters: second compound 0.0949 µM; first compound 0.0316 µM; stronger effect = lower value
# From the text: Multicellular complex tumor spheroid response to apoptosis pathway targeting inhibitors Alrizomadlin, Pelcitoclax, and Dasminapant in combination with a variety of drugs and investigational agents in selected tumor cell lines […] Compounds. […] If the clinical Cmax for an agent had not been determined, the highest concentration tested was 10 microM. […]
Known viability, T/C of a selection of molecules
Express the result in % but write the number alone.

Guide cases for viability, T/C, answers given:
Asked: Tell me measured viability, T/C for Cn1ncnc1[C@H]1c2n[nH]c(=O)c3cc(F)cc(c23)N[C@@H]1c1ccc(F)cc1 + CCN1C(C(=O)NC23CCC(C(=O)O)(CC2)CC3)C(c2cccc(Cl)c2F)C2(C(=O)Nc3cc(Cl)ccc32)C12CCCCC2 please.
Given back: 77.6

Asked: Tell me measured viability, T/C for CNC(C)C(=O)NC1CN(S(=O)(=O)c2cccc(S(=O)(=O)N3CCC4CCC(C(=O)NC(c5ccccc5)c5ccccc5)N4C(=O)C(NC(=O)C(C)NC)C3)c2)CCC2CCC(C(=O)NC(c3ccccc3)c3ccccc3)N2C1=O (stereo not given) + CCN1C(C(=O)NC23CCC(C(=O)O)(CC2)CC3)C(c2cccc(Cl)c2F)C2(C(=O)Nc3cc(Cl)ccc32)C12CCCCC2 please.
Given back: 79.1

Asked: Tell me measured viability, T/C for NC1CCC(NC2CC2c2ccccc2)CC1 (stereo not given) + CCN1C(C(=O)NC23CCC(C(=O)O)(CC2)CC3)C(c2cccc(Cl)c2F)C2(C(=O)Nc3cc(Cl)ccc32)C12CCCCC2 please.
Given back: 106

Asked: Tell me measured viability, T/C for C=C(F)C(=O)N1CCN(c2nc(OCC3CCCN3C)nc3c2CCN(c2cccc4cccc(Cl)c24)C3)CC1CC#N (stereo not given) + CCN1C(C(=O)NC23CCC(C(=O)O)(CC2)CC3)C(c2cccc(Cl)c2F)C2(C(=O)Nc3cc(Cl)ccc32)C12CCCCC2 please.
Given back: 106

Asked: Tell me measured viability, T/C for C=CC(=O)N1CCN(c2nc(=O)n(-c3c(C)ccnc3C(C)C)c3nc(-c4c(O)cccc4F)c(F)cc23)C(C)C1 (stereo not given) + CCN1C(C(=O)NC23CCC(C(=O)O)(CC2)CC3)C(c2cccc(Cl)c2F)C2(C(=O)Nc3cc(Cl)ccc32)C12CCCCC2 please.
Given back: 101

Continuing:
Asked: Tell me measured viability, T/C for CCN1CCN(Cc2ccc(Nc3ncc(F)c(-c4cc(F)c5nc(C)n(C(C)C)c5c4)n3)nc2)CC1 + CCN1C(C(=O)NC23CCC(C(=O)O)(CC2)CC3)C(c2cccc(Cl)c2F)C2(C(=O)Nc3cc(Cl)ccc32)C12CCCCC2 please.
Given back: 97

Asked: Tell me measured viability, T/C for C#Cc1c(F)ccc2cc(O)cc(-c3ncc4c(N5CC6CCC(C5)N6)nc(OCC56CCCN5CC(F)C6)nc4c3F)c12 (stereo not given) + CCN1C(C(=O)NC23CCC(C(=O)O)(CC2)CC3)C(c2cccc(Cl)c2F)C2(C(=O)Nc3cc(Cl)ccc32)C12CCCCC2 please.
Given back: 108

Asked: Tell me measured viability, T/C for COc1c(OCCCN2CCOCC2)ccc2c3n(c(=NC(=O)c4cnc(N)nc4)nc12)CCN3 + CCN1C(C(=O)NC23CCC(C(=O)O)(CC2)CC3)C(c2cccc(Cl)c2F)C2(C(=O)Nc3cc(Cl)ccc32)C12CCCCC2 please.
Given back: 81.3

Asked: Tell me measured viability, T/C for O=C(c1cc(Cc2n[nH]c(=O)c3ccccc23)ccc1F)N1CCN(C(=O)C2CC2)CC1 + CCN1C(C(=O)NC23CCC(C(=O)O)(CC2)CC3)C(c2cccc(Cl)c2F)C2(C(=O)Nc3cc(Cl)ccc32)C12CCCCC2 please.
Given back: 101

Asked: Tell me measured viability, T/C for O=C(c1ccc(F)c(F)c1Nc1ccc(I)cc1F)N1CC(O)([C@@H]2CCCCN2)C1 + CCN1C(C(=O)NC23CCC(C(=O)O)(CC2)CC3)C(c2cccc(Cl)c2F)C2(C(=O)Nc3cc(Cl)ccc32)C12CCCCC2 please.
Given back: 98.2

---

# Test system: 317291-083-R-J1-PDC complex spheroid growth
# Method Description: Anticancer human tumor 317291-083-R-J1-PDC cell line growth inhibition [Asc];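 also: compound exposure lasted seven days after spheroids formed for three days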
# Test Parameters: curve of first compound; second compound 0.949 µM
# Description: Multicellular complex tumor spheroid response to apoptosis pathway targeting inhibitors Alrizomadlin, Pelcitoclax, and Dasminapant in combination with a variety of drugs and investigational agents in selected tumor cell lines […] Compounds. […] If the clinical Cmax for an agent had not been determined, the highest concentration tested was 10 microM. […]
Assay Readout: IC50 (nM)
Express the result in nM but write the number alone.

Asked: Please tell me the measured IC50 for NC(=O)C(=Cn1cnc(-c2cc(C(F)(F)F)cc(C(F)(F)F)c2)n1)c1cncnc1 + CCN1C(C(=O)NC23CCC(C(=O)O)(CC2)CC3)C(c2cccc(Cl)c2F)C2(C(=O)Nc3cc(Cl)ccc32)C12CCCCC2 ; system: 317291-083-R-J1-PDC complex spheroid growth.
Given back: 23.6

Then there is this compound:
Asked: Please tell me the measured IC50 for COc1c(OCCCN2CCOCC2)ccc2c3n(c(=NC(=O)c4cnc(N)nc4)nc12)CCN3 + CCN1C(C(=O)NC23CCC(C(=O)O)(CC2)CC3)C(c2cccc(Cl)c2F)C2(C(=O)Nc3cc(Cl)ccc32)C12CCCCC2 ; system: 317291-083-R-J1-PDC complex spheroid growth.
Given back: 180

---

# Test system: 317291-083-R-J1-PDC complex spheroid growth
# Method Description: Anticancer human tumor 317291-083-R-J1-PDC cell line growth inhibition [Asc];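 also: compound exposure lasted seven days after spheroids formed for three days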;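 as to viability, T/C: 100% = DMSO vehicle control wells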
# Test Parameters: second compound 0.0316 µM; first compound 0.01 µM; stronger effect = lower value
# Description: Multicellular complex tumor spheroid response to apoptosis pathway targeting inhibitors Alrizomadlin, Pelcitoclax, and Dasminapant in combination with a variety of drugs and investigational agents in selected tumor cell lines […] Compounds. […] If the clinical Cmax for an agent had not been determined, the highest concentration tested was 10 microM. […]
Known viability, T/C of a selection of molecules

Asked: Tell me measured viability, T/C for O=C(c1ccc(F)c(F)c1Nc1ccc(I)cc1F)N1CC(O)([C@@H]2CCCCN2)C1 + Cc1c(S(C)(=O)=O)c(-c2cc(F)cc(N3CCN(c4ccc(NS(=O)(=O)c5ccc(NC(CCN6CCC(C(=O)OCCCP(=O)(O)O)CC6)CSc6ccccc6)c(S(=O)(=O)C(F)(F)F)c5)cc4)CC3)c2)c(-c2ccc(Cl)cc2)n1C(C)C please.
Given back: 96.5%

Asked: Tell me measured viability, T/C for COc1c(OCCCN2CCOCC2)ccc2c3n(c(=NC(=O)c4cnc(N)nc4)nc12)CCN3 + CNC(C)C(=O)NC1CN(S(=O)(=O)c2cccc(S(=O)(=O)N3CCC4CCC(C(=O)NC(c5ccccc5)c5ccccc5)N4C(=O)C(NC(=O)C(C)NC)C3)c2)CCC2CCC(C(=O)NC(c3ccccc3)c3ccccc3)N2C1=O please.
Given back: 73.2%

Then there is this molecule:
Asked: Tell me measured viability, T/C for Cn1ncnc1[C@H]1c2n[nH]c(=O)c3cc(F)cc(c23)N[C@@H]1c1ccc(F)cc1 + CNC(C)C(=O)NC1CN(S(=O)(=O)c2cccc(S(=O)(=O)N3CCC4CCC(C(=O)NC(c5ccccc5)c5ccccc5)N4C(=O)C(NC(=O)C(C)NC)C3)c2)CCC2CCC(C(=O)NC(c3ccccc3)c3ccccc3)N2C1=O please.
Given back: 57%
